- Tested on: RXRa DBDmut IVT, anti-RXR (DBD mutation: RXRa K156A/R161A, NR concentration 90 nM)
- experimental.details: PBM binding z-score (relative to random genomic background probes); higher = stronger binding; sequences stand for … in GC…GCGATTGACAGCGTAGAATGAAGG
Please provide measured PBM binding z-score for the entries that follow.
Give bare numbers.

Field: example entries. Status: answers known.
query: Any idea what PBM binding z-score was measured for ATCTCTAGGTAAAGATAGTTCAGAGAATGCAAAT ?
result: -0.136

query: Any idea what PBM binding z-score was measured for AATACAGGGTCATCATAGGCCAGAGTACGCACAG ?
result: 3.54

query: Any idea what PBM binding z-score was measured for TCCTGTAGATCAAAGGTTAAGAAAGCCGAAGCCT ?
result: 0.61

query: Any idea what PBM binding z-score was measured for ACTAGTTTGTCAGCTGAGGTCACACACAATTCGG ?
result: 1.98

query: Any idea what PBM binding z-score was measured for CCGAGTAGGTTATGGGGCATACAGGCAACGGTGA ?
result: -0.471

// moving on: another record for PBM binding z-score
query: Any idea what PBM binding z-score was measured for CGTCATAGTTCAAGGTAACGTAACAGAAAGCAGC ?
result: 2.26

Every entry's value here was drawn from the supplement of paper PMC6555819.
